Molecular target: CHO-CHOP luciferase reporter, UPR activation, luminescence
Experiment: PERK-eIF2a-CHOP reporter activation – CHO-CHOP cells, luciferase luminescence, set 3, SAR follow-up (AID 602434)
Task for the reader: assign each of the following molecules its reported EC50.

O=C(Nc1ccc(S(=O)(=O)N2CCC(F)CC2)cc1)c1ccc([N+](=O)[O-])o1 ... 435 nM
CC1(C)CCN(S(=O)(=O)c2ccc(NC(=O)c3ccc([N+](=O)[O-])o3)cc2)CC1 ... 765 nM
O=C(Nc1ccc(S(=O)(=O)N2CCCCC2)cc1)c1ccc([N+](=O)[O-])o1 ... 741 nM
O=C(Nc1ccc(S(=O)(=O)N2CCC(Cl)CC2)cc1)c1ccc([N+](=O)[O-])o1 ... 785 nM
CC(C)(C)C1CCN(S(=O)(=O)c2ccc(NC(=O)c3ccc([N+](=O)[O-])o3)cc2)CC1 ... 652 nM

// EC50 (CHO-CHOP luciferase reporter, UPR activation, luminescence) for CC1CCN(S(=O)(=O)c2ccc(NC(=O)c3ccc([N+](=O)[O-])o3)cc2)CC1 = 761 nM
